# experiment_notes: Drug concentration in blood and tissues of hamsters administered with multiple doses
# Type: in vivo, Golden Syrian Hamsters
# test_parameters: male, Golden Syrian, hamster, blood, oral 10 mg/kg every day for two weeks, two hours after the final administration, read-out: Drug Concentration Blood
readout: concentration at 2 h (ng/mL)

a: CCN(c1ncc(-c2c(C)noc2C)nc1CN1C(=O)O[C@H](c2cc(C(F)(F)F)cc(C(F)(F)F)c2)[C@@H]1C)C1CCCCC1 [Example 96]
b: CCN(c1ncc(-c2c(C)noc2C)cc1CN1C(=O)O[C@H](c2cc(C(F)(F)F)cc(C(F)(F)F)c2)[C@@H]1C)C1CCCCC1 [Example 58]
Parameter check: reported concentration at 2 h is higher for which label, a or b ? Answer format: the label of the selected item.
b
(b: 606 ng/mL, a: 309 ng/mL)

Data credit: patent US9533977B2
